target: BuChE (UniProt P81908); construct: 120 min incubation; BuChE IC50; format: biochemical, human or equine serum; conditions: read-out: IC50 BuChE 120 min
Structures can show the parent of a compound that is named as a salt.
endpoint_name: IC50 (nM)
Expressed in nM, but write only the number.

Entry CCN(C)C(=O)Oc1cccc2[nH]cc(CCN(C)C)c12 [AN-1252, hydrochloride] , BuChE (UniProt P81908) data, IC50 value: 110

====

Measured pIC50 values are reported for all entries that follow.
biological target: BuChE (UniProt P81908); construct: 120 min incubation; BuChE IC50; assay type: biochemical, human or equine serum; conditions: read-out: IC50 BuChE 120 min; Table 3; 120 min incubation
Counter-ions that a name gives are not always drawn.
Remember the convention: pIC50 equals -log10 of concentration in molar.

- compound: "CCN(C)C(=O)Oc1cccc2c1C(CCC(=O)O)CN2 (stereo not drawn) [AN-850, hydrochloride]"
  val: 6.52
- compound: "COC(=O)CCC1CN(C)c2cc(OC(=O)N(C)c3ccc(OC)cc3)ccc21 (stereo not drawn) [AN-687, hydrochloride]"
  val: 3.43
- compound: "CCN(C)C(=O)Oc1cccc2c1C(CCN)CN2 (stereo not drawn) [AN-890, dihydrochloride]"
  val: 6.70
- compound: "COC(=O)CCC1CNc2cccc(OC(=O)N(C)c3ccc(OC)cc3)c21 (stereo not drawn) [AN-819, hydrochloride]"
  val: 5.34
- compound: "CCN(C)C(=O)Oc1cccc2[nH]cc(CCCN)c12"
  val: 6.64

Recorded pIC50 (compound CCN(C)C(=O)Oc1ccc2c(c1)NCC2CCC(=O)OC (stereo not drawn) [AN-680, hydrochloride] ): 5.41

Recorded pIC50 (compound CCCCN(C)C(=O)Oc1ccc2c(c1)N(C)CC2CCC(=O)OC (stereo not drawn) [AN-691, hydrochloride] ): 4.18

Recorded pIC50 (compound CCN(C)C(=O)Oc1ccc2c(c1)N(CCC(=O)OC)CC2 [compound 1247, hydrochloride] ): 5.17

Data credit: patent US9499484B2
